meta.source: PubChem BioAssay (NCI)

Let's look at some molecules and their measured TGI.
- Test system: NCI-H522 lung
- EXPERIMENTAL_PROTOCOL: NCI tumour cell line growth inhibition, 48 h

[
  {
    "MOLECULE": "N=C(c1ccccc1)N1CCCCC1",
    "ASSAY_TARGET": "NCI-H522 lung",
    "TGI": "> 100 µM"
  },
  {
    "MOLECULE": "Clc1cc(Cl)cc(N2N=C(c3cccc(Nc4ccncc4)c3)CC2c2ccccc2)c1 (stereo not drawn)",
    "ASSAY_TARGET": "NCI-H522 lung",
    "TGI": "3.6 µM"
  },
  {
    "MOLECULE": "Cc1ccc(-c2c(C#N)c(-c3ccc(N(C)C)cc3)c(C#N)c(=O)n2NS(=O)(=O)c2ccccc2)cc1",
    "ASSAY_TARGET": "NCI-H522 lung",
    "TGI": "> 100 µM"
  },
  {
    "MOLECULE": "C/C(=N\\NC(=S)N(C)C)c1ncc[nH]1",
    "ASSAY_TARGET": "NCI-H522 lung",
    "TGI": "9.01 µM"
  },
  {
    "MOLECULE": "O=C(CC(=O)Nc1ccc(Cl)cc1)NNCC(=O)Nc1nc(-c2ccccc2)cs1",
    "ASSAY_TARGET": "NCI-H522 lung",
    "TGI": "> 100 µM"
  },
  {
    "MOLECULE": "Cc1ccc2c(c1)C(C1Cc3c(C)cccc3C1=O)OC2=O (stereo not drawn)",
    "ASSAY_TARGET": "NCI-H522 lung",
    "TGI": "> 100 µM"
  },
  {
    "MOLECULE": "COC(=O)/C=C/c1cc(OC)c2c(c1)C(C(=O)OC)C(c1ccc(OC)c(OC)c1)O2 (stereo not drawn)",
    "ASSAY_TARGET": "NCI-H522 lung",
    "TGI": "> 100 µM"
  },
  {
    "MOLECULE": "CCOc1ccc(C2c3[nH]c4ccccc4c3CCN2C(=O)c2cccs2)cc1 (stereo not drawn)",
    "ASSAY_TARGET": "NCI-H522 lung",
    "TGI": "> 100 µM"
  },
  {
    "MOLECULE": "C/C(C=O)=N\\Nc1cc(C)c2ccccc2n1",
    "ASSAY_TARGET": "NCI-H522 lung",
    "TGI": "47.1 µM"
  },
  {
    "MOLECULE": "COc1nccc(-c2c(-c3ccc(F)cc3)ncn2C2CCC(O)CC2)n1 (stereo not drawn)",
    "ASSAY_TARGET": "NCI-H522 lung",
    "TGI": "> 100 µM"
  },
  {
    "MOLECULE": "C1CSCC2(COC2)CS1",
    "ASSAY_TARGET": "NCI-H522 lung",
    "TGI": "> 100 µM"
  },
  {
    "MOLECULE": "COC(=O)Nc1ccc2ccc3c(NC(=O)OC)ccc4ccc1c2c43 (tested in a mixture with another compound)",
    "ASSAY_TARGET": "NCI-H522 lung",
    "TGI": "> 50 µM"
  },
  {
    "MOLECULE": "N#C/C(=C\\c1ccc(Cl)cc1)c1nc2ccccc2c(=O)[nH]1",
    "ASSAY_TARGET": "NCI-H522 lung",
    "TGI": "> 100 µM"
  },
  {
    "MOLECULE": "CCOC(=O)/C(C#N)=C(O)/C(=C/c1ccccc1Cl)NC(=O)c1ccccc1",
    "ASSAY_TARGET": "NCI-H522 lung",
    "TGI": "> 100 µM"
  },
  {
    "MOLECULE": "CCCCCCn1c(-c2ccc(C(=O)O/N=C(\\N)c3ccc(OC)cc3)cc2)nc(-c2ccccc2)c1-c1ccccc1",
    "ASSAY_TARGET": "NCI-H522 lung",
    "TGI": "3.72 µM"
  },
  {
    "MOLECULE": "COc1ccc2c(OC)c3ccoc3nc2c1O",
    "ASSAY_TARGET": "NCI-H522 lung",
    "TGI": "> 100 µM"
  },
  {
    "MOLECULE": "O=c1c2cc(Br)ccc2oc2ccc(Br)cc12",
    "ASSAY_TARGET": "NCI-H522 lung",
    "TGI": "> 100 µM"
  },
  {
    "MOLECULE": "COC(=O)C1=CN(CC2=CC(=O)C(C)=CC2=O)C=C(C(=O)OC)C1c1cccc(OC)c1OC",
    "ASSAY_TARGET": "NCI-H522 lung",
    "TGI": "45.2 µM"
  },
  {
    "MOLECULE": "COc1ccc(CCN2CCC(C#N)(c3ccc(OC)c(OC)c3)CC2)cc1OC",
    "ASSAY_TARGET": "NCI-H522 lung",
    "TGI": "> 100 µM"
  },
  {
    "MOLECULE": "CC(=O)Nc1c(C)cc(OCC(=O)O)cc1C",
    "ASSAY_TARGET": "NCI-H522 lung",
    "TGI": "> 100 µM"
  },
  {
    "MOLECULE": "O=C(Nc1ccccc1Cl)c1cnc2ccc(C3CCNCC3)cn12",
    "ASSAY_TARGET": "NCI-H522 lung",
    "TGI": "> 100 µM"
  },
  {
    "MOLECULE": "COc1ncnc2c(NC3OC(CO)C(O)C3O)ncnc12 (stereo not drawn)",
    "ASSAY_TARGET": "NCI-H522 lung",
    "TGI": "> 100 µM"
  },
  {
    "MOLECULE": "CCc1ccccc1NC(=O)CCc1nc(=S)[nH][nH]1",
    "ASSAY_TARGET": "NCI-H522 lung",
    "TGI": "> 100 µM"
  }
]

====

In this section, each of the compounds is paired with its reported GI50.
- Tested on: UACC-257 melanoma
- EXPERIMENTAL_PROTOCOL: NCI tumour cell line growth inhibition, 48 h
READOUT_KIND: GI50

[
  {
    "COMPOUND": "Nc1cc(N)c2nc(-c3ccccc3)c(Nc3ccc(F)cc3)nc2c1",
    "MEASUREMENT": "15.3 µM"
  },
  {
    "COMPOUND": "C=C1C(=O)O[C@H]2[C@H]1CC/C(COC(=O)NCCc1ccc(OC)cc1)=C\\CC[C@@]1(C)O[C@@H]21",
    "MEASUREMENT": "2.49 µM"
  },
  {
    "COMPOUND": "COc1ccc(/C=C/C(=O)c2ccc(Nc3ncnc4ccccc34)cc2)cc1OC",
    "MEASUREMENT": "20.3 µM"
  },
  {
    "COMPOUND": "COc1cc(C)cc2c1OC(c1ccccc1)CC2=O (stereo not given)",
    "MEASUREMENT": "> 100 µM"
  },
  {
    "COMPOUND": "O=c1c2cc(I)ccc2nc(-c2cccs2)n1Nc1ccccc1",
    "MEASUREMENT": "32.3 µM"
  }
]

====

- System: SN12C renal
- EXPERIMENTAL_PROTOCOL: NCI tumour cell line growth inhibition, 48 h; in the data active = GI50 below about 0.43 µM; inactive = the rest
Possible outcomes: label 1 = active, label 0 = inactive

[
  {
    "COMPOUND": "N#Cc1nc(-c2cccc(Br)c2)cc(-c2ccc(Nc3nc(N4CCCCC4)nc(N4CCCCC4)n3)cc2)c1N",
    "CLASS_LABEL": "label 0"
  },
  {
    "COMPOUND": "Nc1nc(-n2cccn2)nc(-n2cccn2)c1Br",
    "CLASS_LABEL": "label 0"
  },
  {
    "COMPOUND": "Clc1cc(Cl)cc(N2N=C(c3cccc(Nc4ccncc4)c3)CC2c2ccccc2)c1 (stereo not given)",
    "CLASS_LABEL": "label 0"
  },
  {
    "COMPOUND": "Cc1cccc2c3c(sc12)C(c1ccc(Cl)cc1)C(C#N)=C(/N=C/c1ccc(Cl)cc1)O3 (stereo not given)",
    "CLASS_LABEL": "label 0"
  },
  {
    "COMPOUND": "COC(=O)c1c2c(c(C)[n+]([O-])c1C)C(=O)C=C(NCc1ccc(Cl)cc1)C2=O",
    "CLASS_LABEL": "label 1"
  },
  {
    "COMPOUND": "C#Cc1cccc(NC(=O)Nc2ccc(NC(=O)CCl)cc2)c1",
    "CLASS_LABEL": "label 0"
  },
  {
    "COMPOUND": "COc1ccc2c(c1)[nH]c(=O)c1c3cccnc3cn21",
    "CLASS_LABEL": "label 1"
  },
  {
    "COMPOUND": "O=C(O)C(/C=C/c1ccco1)=N\\Nc1nc(-c2ccc(Cl)cc2)cs1",
    "CLASS_LABEL": "label 0"
  },
  {
    "COMPOUND": "O=c1cc/c(=N\\Nc2ccccc2)c(=O)/c1=N/Nc1ccccc1",
    "CLASS_LABEL": "label 0"
  },
  {
    "COMPOUND": "CCN(CC)CCC(=O)Nc1cccc2c1C(=O)c1c(c(O)c3ccccc3c1O)C2=O",
    "CLASS_LABEL": "label 0"
  }
]
